# Lookup of reported inhibition at 1 ppm keyed by entry
tested on: Monilinia fructicola; test: Spore germination inhibition; assay type: cell-based; conditions: 1 ppm, 24 hours
Note: unit % is implicit; provide only the numeric part.

CC(=O)C(CSC(=S)N(C)C)=C(C)O: 0
COc1ccc(C(C[N+](=O)[O-])SC(=S)N(C)C)cc1OC (centres unmarked): 0
CC(=O)Oc1ccc(C(C[N+](=O)[O-])SC(=S)N(C)C)cc1 (centres unmarked): 0
CN(C)CC(C)(CSC(=S)N(C)C)[N+](=O)[O-] (centres unmarked): 0

Now for another entry.
Requested field: inhibition at 1 ppm. Item: CN(C)C(=S)SC(C[N+](=O)[O-])c1ccc(Br)cc1 (centres unmarked)
100

---

# Lookup of reported disease control index keyed by entry
tested on: Piricularia oryzae; assay type: in vivo; set-up: scale not given here; settings: Rice Blast; at 75 ppm, five days

Below, 4 compounds whose answers are already recorded.
CN(C)C(=S)SC(C[N+](=O)[O-])c1ccc(Cl)s1 (stereo not shown): 1
COc1cccc(C(C[N+](=O)[O-])SC(=S)N(C)C)c1OC(C)=O (stereo not shown): 3
CC(=O)C(CSC(=S)N(C)C)SC(=S)N(C)C (stereo not shown) [Example 10, Acetylethylene Dimethyldithiocarbamate]: 4
CN(C)C(=S)SC(C[N+](=O)[O-])c1cccc2ccccc12 (stereo not shown): 4

Requested field: disease control index. Item: CN(C)C(=S)SCC(SC(=S)N(C)C)C(=O)c1ccccc1 (stereo not shown)
3

Requested field: disease control index. Item: CC(=O)Oc1ccc(C(C[N+](=O)[O-])SC(=S)N(C)C)cc1 (stereo not shown)
3

Requested field: disease control index. Item: CN(C)C(=S)SC(C[N+](=O)[O-])c1cc([N+](=O)[O-])ccc1Cl (stereo not shown)
3

These entries and their values trace back to patent US4148795A.
